assay: Metabolic Stability Study, liver microsome incubation (mouse); type: in vitro ADME; details: mouse liver microsomes 0.5 mg/mL, 1 μM compound, NADPH; read-out: CLint (μL × min^−1 × mg^−1) mouse
property.label: microsomal CLint at 1 μM (µL/min/mg)

molecule=COc1cc(CN2CCN(C3CC4(C3)CN(c3ccc(C(=O)NS(=O)(=O)c5ccc(NC[C@H]6CC[C@](C)(O)CC6)c([N+](=O)[O-])c5)c(Oc5cnc6[nH]cc(F)c6c5)c3)C4)[C@H](c3ccccc3C(C)C)C2)ccc1OC1CC1 property_label="microsomal CLint at 1 μM" recorded_result=2.2
molecule="COc1ccc(CN2CCN(C3CC4(CCN(c5ccc(C(=O)NS(=O)(=O)c6ccc(NC[C@H]7CC[C@](C)(O)CC7)c([N+](=O)[O-])c6)c(Oc6cnc7[nH]ccc7c6)c5)CC4)C3)C(c3ccccc3C(C)C)C2)c(OC)c1 (stereo partly shown)" property_label="microsomal CLint at 1 μM" recorded_result=4.3
molecule="COc1ccc(CN2CCN(C3CC4(CCN(c5ccc(C(=O)NS(=O)(=O)c6ccc(NC[C@H]7CC[C@](C)(O)CC7)c([N+](=O)[O-])c6)c(Oc6cnc7[nH]ccc7c6)c5)CC4)C3)[C@H](c3ccccc3C(C)C)C2)cc1OC [Example 81a]" property_label="microsomal CLint at 1 μM" recorded_result=6.32
molecule="COc1ccc(CN2CCN(C3CC4(CCN(c5ccc(C(=O)NS(=O)(=O)c6ccc(NC[C@H]7CC[C@](C)(O)CC7)c([N+](=O)[O-])c6)c(Oc6cnc7[nH]ccc7c6)c5)CC4)C3)C(c3ccccc3C(C)C)C2)cn1 (stereo partly shown)" property_label="microsomal CLint at 1 μM" recorded_result=8.7
